Origin of measurements: patent US20130005646A1

Target: T1, rat calcitonin (a) receptor (rat, UniProt P32214 25-516)
T1 sequence (looked up): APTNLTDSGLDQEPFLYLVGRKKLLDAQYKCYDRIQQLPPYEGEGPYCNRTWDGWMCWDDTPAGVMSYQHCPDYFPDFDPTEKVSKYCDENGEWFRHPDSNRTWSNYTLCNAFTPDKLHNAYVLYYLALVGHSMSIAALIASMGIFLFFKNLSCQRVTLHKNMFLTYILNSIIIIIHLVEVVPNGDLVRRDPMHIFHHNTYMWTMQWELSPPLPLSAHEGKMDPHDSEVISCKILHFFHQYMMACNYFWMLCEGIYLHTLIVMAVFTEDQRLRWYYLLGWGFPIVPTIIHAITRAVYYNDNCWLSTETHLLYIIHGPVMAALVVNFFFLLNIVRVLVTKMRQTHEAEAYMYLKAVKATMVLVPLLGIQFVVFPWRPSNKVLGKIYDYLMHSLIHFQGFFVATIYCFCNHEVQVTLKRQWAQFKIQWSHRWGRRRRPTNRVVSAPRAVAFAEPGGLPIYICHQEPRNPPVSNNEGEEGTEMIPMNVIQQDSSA
Assay: cell-based or functional assay
Starred links: 1 amine or outer side, 2 acyl side, 3 side chain; linkers in the order of their positions; H or OH if unused. Positions of bridges follow the written chain, without caps; N, C: chain ends. Non-standard residues stand in square brackets, D forms with d. *: point of attachment. C20 diacid = O=C(O)CCCCCCCCCCCCCCCCCCC(=O)*; 19‑carboxyheptadecanoyl = not defined here; γGlu = O=C(O)[C@H](CCC(=O)[*:2])N[*:1]; AEEA = NCCOCCOCC(=O)O
Exercise: for every item that follows, state its recorded CTa receptor rat EC50.
Give bare numbers, in nM.

Known results for binders:
# BINDER, CTa receptor rat EC50 / nM
data = [
    ("{C20 diacid-γGlu}-HCNTATCATQRLAEFLHHSSNNFGPILPPTNVGSNTY-NH2 (disulfide 2-7; not fully specified; printed as N-alpha-[(S)-4-Carboxy-4-(19-carboxynonadecanoylamino)butyryl]-[His1,Glu14,His17]-pramlintide) [N-alpha-[(S)-4-Carboxy-4-(19-carboxynonadecanoylamino)butyryl]-[His1,Glu14,His17]-pramlintide]", 1.17),
    ("KCNTATCATQRLAEFLRHSSNNFGPILPPTNVGSNTP (N-alpha acylated: C20diacid-gGlu; disulfide Cys2-Cys7; C-terminal amide) [N-alpha-[(S)-4-Carboxy-4-(19-carboxynonadecanoylamino)butyryl]-[Glu14,Arg17,Pro37]-pramlintide]", 0.287),
    ("{19‑carboxyheptadecanoyl-γGlu-AEEA-AEEA}-[dR][dR]KCNTATCATQRLAEFLHRSSNNFGPILPPTNVGSNTY-NH2 (disulfide 4-9; reading uncertain; also: printed as N-alpha-[2-(2-{2-[2-(2-{2-[(S)-4-Carboxy-4-(19-carboxyheptadecanoylamino)butyrylamino]ethoxy}ethoxy)acetylamino]ethoxy}ethoxy)acetyl]-D-Arg-D-Arg-[Glu14,His17,Arg18]-pramlintide)", 1.89),
]

# input for lookup
Given the binder {C20 diacid-γGlu}-EKCNTATCATQRLAEFLHHSSNNFGPILPPTNVGSNTY-NH2 (disulfide 3-8; not fully specified; printed as N-alpha-[(S)-4-Carboxy-4-(19-carboxynonadecanoylamino)butyryl]-Glu-[Glu14,His17]-pramlintide) [N-alpha-[(S)-4-Carboxy-4-(19-carboxynonadecanoylamino)butyryl]-Glu-[Glu14,His17]-pramlintide] , what is its reported CTa receptor rat EC50?
1.39
